assay: Pharmacokinetics in rat plasma after oral administration of SF-CS and SP-CS extracts (HPLC-MS/MS); format: in vivo, Male Sprague-Dawley rats; conditions: male, Sprague-Dawley; rat plasma, oral SF-CS extract (A) 1.9 g kg^-1, n = 10
measure: Tmax (min)

Consider the following illustrative entries.
| smiles notation | measure | endpoint result |
| --- | --- | --- |
| O=c1c(O[C@@H]2O[C@H](CO)[C@@H](O)[C@H](O)[C@H]2O)c(-c2ccc(O)cc2)oc2cc(O)cc(O)c12 | Tmax | 59.4 |
| O=C(/C=C/c1ccc(O)c(O)c1)O[C@@H]1C[C@](O)(C(=O)O)C[C@@H](O)[C@H]1O | Tmax | 230 |
| O=c1c(O[C@@H]2O[C@H](CO)[C@H](O)[C@H](O)[C@H]2O)c(-c2ccc(O)c(O)c2)oc2cc(O)cc(O)c12 | Tmax | 44.4 |

[P] O=C(/C=C/c1ccc(O)c(O)c1)O[C@@H]1C[C@@](O)(C(=O)O)C[C@@H](O)[C@@H]1O
[Q] O=C(O)/C=C/c1ccc(O)cc1
*Q* Looking at recorded values for Tmax, does P or Q come in lower? Your answer should be the label of the entry you select.
*A* Q
(Q: 32.4 min, P: 225 min)
